tested on: HEK-293T; experiment: Multiplex assay against HEK293T; type: toxicity, cell-based; conditions: human, 48 h, 1 µM, compound concentration 1 uM, replicate 2
Non-standard residues stand in square brackets, D forms with d. Residues, ends and D or L forms follow the SMILES beside them.
value_type: Population Membrane Permeable-Phenotype (%)
Numeric only. Scale: %

// solved cases for Population Membrane Permeable-Phenotype (%) follow
compound=CC(C)C[C@H](CO)Nc1nc(S[C@@H](C)c2ccccc2)nc2nc(N)sc12 recorded_number=1
compound="CCn1c(-c2nc3cc(C(=O)N4CCCC(N)C4)ccc3n2C)cc2ccccc21.Cl (stereo not given)" recorded_number=0
compound="COc1cc2nc(N3CCN(C(=O)c4ccco4)CC3)nc(N)c2cc1OC.Cl [PRAZOSIN HYDROCHLORIDE]" recorded_number=0
compound="CC(C)C[C@@H]1NC(=O)[C@@H](C(C)C)NC(=O)[C@@H]2CCCN2C(=O)[C@@H](CC(=O)O)NC(=O)[C@@H](Cc2c[nH]c3ccccc23)NC1=O [BQ-123] (cyclo(L[dW][dD]P[dV]))" recorded_number=1
compound=O=c1ccc2ccc(OCCCCN3CCN(c4cccc5sccc45)CC3)cc2[nH]1 recorded_number=1
compound="O=C(NCCNCC(O)COc1ccc(O)cc1)N1CCOCC1.O=C(NCCNCC(O)COc1ccc(O)cc1)N1CCOCC1.O=C(O)/C=C/C(=O)O (stereo not given) [XAMOTEROL FUMARATE]" recorded_number=0
compound=COc1cc2nc(N3CCN(C(=O)COc4c(OC)cccc4C(C)C)CC3)nc(N)c2cc1OC.Cl.Cl recorded_number=0
compound=Cn1cc(C(=O)OCC2CCN(CCNS(C)(=O)=O)CC2)c2ccccc21 recorded_number=3

I would be grateful if you could share the reported Population Membrane Permeable-Phenotype (%) for Cc1c(Cc2ccc3ccccc3n2)c2cc(F)ccc2n1CC(=O)O . 0

I would be grateful if you could share the reported Population Membrane Permeable-Phenotype (%) for Cc1sc2c(c1C)C(c1ccc(Cl)cc1)=N[C@H](CC(=O)OC(C)(C)C)c1nnc(C)n1-2 . 0

I would be grateful if you could share the reported Population Membrane Permeable-Phenotype (%) for Cc1cc(NC(=O)NCCN2CCC(O)(Cc3ccccc3)CC2)c2ccccc2n1 . 0

I would be grateful if you could share the reported Population Membrane Permeable-Phenotype (%) for COCCCN1CCC(NC(=O)c2cc(Cl)c(N)c3c2OCC3)CC1 [PRUCALOPRIDE] . 0

I would be grateful if you could share the reported Population Membrane Permeable-Phenotype (%) for C[C@H](NC(=O)CNC(=O)c1cccc(Cl)c1)c1ccccc1 . 2

I would be grateful if you could share the reported Population Membrane Permeable-Phenotype (%) for N[C@](CC1c2ccccc2Oc2ccccc21)(C(=O)O)[C@H]1C[C@@H]1C(=O)O . 0

I would be grateful if you could share the reported Population Membrane Permeable-Phenotype (%) for O=c1nc2[nH]c3ccccc3nc-2c(=O)[nH]1 . 0
